Reference for the values: patent US20230134571A1

- SYSTEM_UNDER_TEST: HIV Env of isolate MS208.A1 (clade A) (HIV)
- RUN_DESCRIPTION: cell-based or functional assay
Entries and their IC80 (µg/ml) with constrains
Remember to quote the unit after the number.

Field IC80 (µg/ml) with constrains (entry ePGDM9 (antibody, V domains shown) VH: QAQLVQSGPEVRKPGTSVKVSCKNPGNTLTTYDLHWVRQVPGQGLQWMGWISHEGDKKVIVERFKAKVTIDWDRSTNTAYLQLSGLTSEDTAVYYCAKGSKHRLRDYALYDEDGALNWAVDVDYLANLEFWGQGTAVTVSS VL: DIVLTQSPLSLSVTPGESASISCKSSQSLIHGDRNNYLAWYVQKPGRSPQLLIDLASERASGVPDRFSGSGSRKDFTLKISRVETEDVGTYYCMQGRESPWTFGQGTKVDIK ) reads 0.036 µg/mL

Field IC80 (µg/ml) with constrains (entry ePGDM13 (antibody, V domains shown) VH: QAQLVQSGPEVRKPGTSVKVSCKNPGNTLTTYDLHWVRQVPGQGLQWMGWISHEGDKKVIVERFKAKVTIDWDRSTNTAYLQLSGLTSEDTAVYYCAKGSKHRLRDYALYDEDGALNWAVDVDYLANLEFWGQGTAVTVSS VL: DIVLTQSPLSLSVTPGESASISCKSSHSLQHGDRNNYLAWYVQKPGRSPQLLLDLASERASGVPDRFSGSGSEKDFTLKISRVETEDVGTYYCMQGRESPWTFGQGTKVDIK ) reads 0.109 µg/mL

Field IC80 (µg/ml) with constrains (entry PGDM1400 (antibody, V domains shown) VH: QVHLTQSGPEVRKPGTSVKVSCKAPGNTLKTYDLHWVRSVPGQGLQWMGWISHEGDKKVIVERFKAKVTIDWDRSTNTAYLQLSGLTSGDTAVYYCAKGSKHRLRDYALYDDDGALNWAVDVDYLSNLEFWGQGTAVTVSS VL: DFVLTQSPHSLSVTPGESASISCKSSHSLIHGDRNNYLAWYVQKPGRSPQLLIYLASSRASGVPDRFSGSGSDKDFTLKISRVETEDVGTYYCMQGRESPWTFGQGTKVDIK ) reads 0.041 µg/mL

Field IC80 (µg/ml) with constrains (entry ePGDM5 (antibody, V domains shown) VH: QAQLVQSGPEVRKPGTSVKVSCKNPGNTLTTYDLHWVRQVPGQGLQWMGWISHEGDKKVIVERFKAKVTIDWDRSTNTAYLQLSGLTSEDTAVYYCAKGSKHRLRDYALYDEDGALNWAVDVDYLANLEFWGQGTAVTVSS VL: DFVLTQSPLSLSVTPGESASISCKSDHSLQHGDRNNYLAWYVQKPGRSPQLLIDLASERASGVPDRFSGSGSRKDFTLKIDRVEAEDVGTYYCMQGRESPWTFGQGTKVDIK ) reads 0.029 µg/mL
